Record form. Attribute: IC50. Fill in for each entry.
# Assay target: GDP-loaded HIS-KRAS(G12D, aa 1-169) (Homo sapiens, UniProt P01116, G12D)
# Construct: GDP-loaded HIS-KRAS(G12D, aa 1-169)
# Sequence (P01116 1-169 isoform P01116-2 G12D): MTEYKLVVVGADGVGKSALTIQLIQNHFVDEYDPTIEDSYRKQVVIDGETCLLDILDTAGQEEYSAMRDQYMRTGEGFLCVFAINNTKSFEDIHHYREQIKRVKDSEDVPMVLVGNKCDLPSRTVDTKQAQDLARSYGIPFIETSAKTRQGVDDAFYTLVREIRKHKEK
# Protocol notes: SOS1 catalyzed nucleotide exchange assay (TR-FRET)
# Experimental context: 4 hours at 25° C.
Numbers only, in nM.

# batch: return IC50 for each of the 3 compounds below
1. C#Cc1cccc2cc(O)cc(-c3c(F)cc4c(N5CC6CCC(C5)N6)nc(OCC5(CN6CCC7(CCCCO7)C6)CC5)nc4c3F)c12 (stereo not drawn) [Compound 34]
2. C#Cc1cccc2cc(O)cc(-c3c(F)cc4c(N5CC6CCC(C5)N6)nc(OCC5(CN6CCc7sccc7C6)CC5)nc4c3F)c12 [Compound 52]
3. C#Cc1cccc2cc(O)cc(-c3c(F)cc4c(N5CC6CCC(C5)N6)nc(OCC5(CN6CCC6)CC5)nc4c3F)c12 [Compound 1]

stdout:
1: 3.07; 2: 4.26; 3: 5.41

# batch: return IC50 for each of the 2 compounds below
1. C#Cc1cccc2cc(O)cc(-c3c(F)cc4c(N5CC6CCC(C5)N6)nc(OCC5(CN6C7COCC6C7)CC5)nc4c3F)c12 [Compound 57]
2. C#Cc1cccc2cc(O)cc(-c3c(F)cc4c(N5CC6CCC(C5)N6)nc(OCC5(CN6CCc7ccccc7C6)CC5)nc4c3F)c12 [Compound 16]

stdout:
[6.81, 27.3]
